The reported measurements were obtained from paper PMC4552634.

Here the recorded % Inhibition is given for each entry.
- System: P. falciparum stage V gametocytes
- Set-up: BacTiter-Glo ATP luminescence viability of purified stage V gametocytes in 384-well plates, per cent inhibition versus DMSO
- Test Conditions: 48 h, 5 µM; inhibitor
Hit rate of the full screen: of about 13,000 compounds, about 3,200 (25%) showed an effect of 50% or more. The list shows a part of the results.

Reference set (2 entries):
{"columns": ["Molecule", "% Inhibition"],
 "data": [
  ["O=C1C[C@@H]([S+]([O-])Cc2nccs2)N1CCOCCCCCCc1ccc(Cl)cc1 (some centres unmarked)", "27.24%"],
  ["COc1cccc(-c2cc(C(=O)Nc3cc(Oc4ccc(O)cc4)cc([N+](=O)[O-])c3)on2)c1", "-10.41%"]
]}

Query (molecule): CCCc1ccc(-c2csc(NC(=O)c3ccc([N+](=O)[O-])o3)n2)cc1 ; field requested: % Inhibition 1.071%

Query (molecule): O=C(Nc1ccc(-c2nc3ccccc3[nH]2)cc1)c1ccc(-c2cccc([N+](=O)[O-])c2)o1 ; field requested: % Inhibition -5.454%

Query (molecule): CCN1CCN(Cc2ccc(-c3ccc(NS(=O)(=O)c4cccc5cccnc45)cc3)cc2)CC1 ; field requested: % Inhibition -5.672%

Query (molecule): O=C(Nc1cccc(-c2cccc(-c3ccc(F)cc3)n2)c1)c1ccc([N+](=O)[O-])o1 ; field requested: % Inhibition 101.6%

Query (molecule): CC(C)(C)c1ccc(C(=O)Nc2ccc(NC(=O)c3ccc([N+](=O)[O-])o3)cc2)cc1 ; field requested: % Inhibition -4.108%

Query (molecule): Cc1cccc2nc(-c3cccc(-c4cccc(C(=O)NCCc5cn(C)cn5)c4)c3)[nH]c12 ; field requested: % Inhibition -97.59%
